Reference source: patent US7923204B2

Test system: FU100
DETAILS: in the presence of S9 activation (+); lowest dose tested giving a positive response
Structures can show the parent of a compound that is named as a salt.

COMPOUND | UNIT TAG | Lowest Positive Dose
Cc1ccc2cc3c(ccc4ccccc43)c3c2c1CC3 | µg/mL | 0.2
COc1ccc2nc3cc(Cl)ccc3c(NCCCNCCCl)c2c1 | µg/mL | 3.2
CN(N=O)C(N)=O | µg/mL | 5.0
ClCc1ccccc1 [Benzyl Chloride] | µg/mL | 50
CCC1(c2ccccc2)C(=O)NC(=O)NC1=O | µg/mL | 1500
O=[N+]([O-])c1ccc2c(c1)Cc1ccccc1-2 | µg/mL | 0.6
CN(C)N=O | µg/mL | 360
O=P1(N(CCCl)CCCl)NCCCO1 (stereo not drawn) [Cyclophosphamide•H2O] | µg/mL | 1500
Nc1ccc2cc3ccccc3cc2c1 | µg/mL | 0.2
CCC1CO1 (stereo not drawn) | µg/mL | 500
COS(C)(=O)=O [Methyl Methanesulfonate] | µg/mL | 10
[N-]=[N+]=[N-] [Sodium Azide] | µg/mL | 90
Cl.Nc1c2ccccc2nc2ccccc12.O [9-Aminoacridine•HCl•H2O] | µg/mL | 16
O=c1ccc2ccccc2o1 | µg/mL | 50
Nc1ccc2cc3ccc(N)cc3nc2c1 [Proflavine HCl] | µg/mL | 0.1

* * *

Recorded measurements of LD50, one per entry
Test system: FU100
DETAILS: in the presence of S9 activation (+); approximate, first dose with greater than 50% survival by optical density on Day 1

COMPOUND | LD50
Cc1ccc2cc3c(ccc4ccccc43)c3c2c1CC3 | >50 µg/mL
C[C@H](CCC(=O)O)[C@H]1CC[C@H]2[C@@H]3CC[C@@H]4C[C@H](O)CC[C@]4(C)[C@H]3CC[C@]12C | >2000 µg/mL
CC(C)(OOC(C)(C)c1ccccc1)c1ccccc1 [Dicumyl peroxide] | >5000 µg/mL
Cl.Nc1c2ccccc2nc2ccccc12.O [9-Aminoacridine•HCl•H2O] | >9 µg/mL
c1ccc2c(c1)cc1ccc3cccc4ccc2c1c34 [Benzo[a]pyrene] | >20 µg/mL
O=c1ccc2ccccc2o1 | >150 µg/mL
OCc1ccccc1 | >500 µg/mL
COC(=O)[C@H]1[C@H]2C[C@@H]3c4[nH]c5cc(OC)ccc5c4CCN3C[C@H]2C[C@@H](OC(=O)c2cc(OC)c(OC)c(OC)c2)[C@@H]1OC | >1500 µg/mL
C=CCc1ccc2c(c1)OCO2 | >50 µg/mL

* * *

Recorded measurements of LD50, one per entry
Test system: FU100
DETAILS: without S9 activation (−); approximate, first dose with greater than 50% survival by optical density on Day 1

COMPOUND | LD50
Nc1ccc([N+](=O)[O-])cc1O [2-Amino-5-nitrophenol] | >300 µg/mL
CCCCC(CC)COC(=O)c1ccccc1C(=O)OCC(CC)CCCC (stereo not shown) [Di (2-ethylhexyl) phthalate] | >5000 µg/mL
COS(C)(=O)=O [Methyl Methanesulfonate] | >100 µg/mL
C[S+](C)[O-] [Dimethyl Sulfoxide] | >5000 µg/mL
Nc1ccc2cc3ccccc3cc2c1 [2-Aminoanthracene] | >10 µg/mL
O=[N+]([O-])c1ccc(O)cc1 [p-Nitrophenol] | >50 µg/mL
CCCCCCCCCCCCOS(=O)(=O)[O-].[Na+] [Sodium Dodecyl Sulfate] | >20 µg/mL
COc1ccc(O)c(C(C)(C)C)c1 [Butylated Hydroxyanisole] | >30 µg/mL
CC(C)(OOC(C)(C)c1ccccc1)c1ccccc1 [Dicumyl peroxide] | >5000 µg/mL
CN(N=O)C(N)=O [N-Nitroso-N-methylurea] | >90 µg/mL

* * *

System: FU100
Counter-ions that a name gives are not always drawn.

MOLECULE | TEST TARGET | Results (5-FU assay)
CN(C)[C@@H]1C(O)=C(C(N)=O)C(=O)[C@@]2(O)C(O)=C3C(=O)c4c(O)cccc4[C@@](C)(O)[C@H]3C[C@@H]12 [Tetracycline HCl] | FU100 | Neg
Nc1ncn([C@@H]2O[C@H](CO)[C@@H](O)[C@H]2O)c(=O)n1 | FU100 | Pos
Oc1ccccc1 | FU100 | Neg
CCCCC(CC)COC(=O)c1ccccc1C(=O)OCC(CC)CCCC (stereo not shown) [Di (2-ethylhexyl) phthalate] | FU100 | Neg
CC/C(=C(\c1ccccc1)c1ccc(OCCN(C)C)cc1)c1ccccc1 | FU100 | Neg
CC/C(=C(/CC)c1ccc(O)cc1)c1ccc(O)cc1 | FU100 | Neg
O=C1NS(=O)(=O)c2ccccc21 | FU100 | Neg
C=CCc1ccc2c(c1)OCO2 | FU100 | Neg
OO [Hydrogen Peroxide] | FU100 | Pos
OCCO | FU100 | Neg
CC(C)CON=O | FU100 | Pos
CC(O)CCl (stereo not shown) | FU100 | Pos^w
O=C1CN(/N=C/c2ccc([N+](=O)[O-])o2)C(=O)N1 | FU100 | Pos

* * *

System: FU100
DETAILS: without S9 activation (−); approximate, first dose with greater than 50% survival by optical density on Day 1
Counter-ions that a name gives are not always drawn.

COMPOUND | LD50
[N-]=[N+]=[N-] [Sodium Azide] | >50 µg/mL
CC1CCC(C(C)C)C(O)C1 (stereo not drawn) | >16 µg/mL
CCC1(c2ccccc2)C(=O)NC(=O)NC1=O | >500 µg/mL
COC(=O)[C@H]1[C@H]2C[C@@H]3c4[nH]c5cc(OC)ccc5c4CCN3C[C@H]2C[C@@H](OC(=O)c2cc(OC)c(OC)c(OC)c2)[C@@H]1OC | >1500 µg/mL
C[C@H](CCC(=O)O)[C@H]1CC[C@H]2[C@@H]3CC[C@@H]4C[C@H](O)CC[C@]4(C)[C@H]3CC[C@]12C | >2000 µg/mL
COc1ccc2nc3cc(Cl)ccc3c(NCCCNCCCl)c2c1 | >3 µg/mL
CC/C(=C(\c1ccccc1)c1ccc(OCCN(C)C)cc1)c1ccccc1 | >3 µg/mL
O=c1ccc2ccccc2o1 | >900 µg/mL
O=[N+]([O-])c1ccc2c(c1)Cc1ccccc1-2 | >1 µg/mL
CN(C)N=O | >2000 µg/mL
Cc1ccc2cc3c(ccc4ccccc43)c3c2c1CC3 | >50 µg/mL
c1ccc2c(c1)cc1ccc3cccc4ccc2c1c34 [Benzo[a]pyrene] | >20 µg/mL
O=Cc1ccccc1 | >150 µg/mL
OCc1ccccc1 | >900 µg/mL
Nc1ncn([C@@H]2O[C@H](CO)[C@@H](O)[C@H]2O)c(=O)n1 | >3 µg/mL
C=CCc1ccc2c(c1)OCO2 | >60 µg/mL
Cl.Nc1c2ccccc2nc2ccccc12.O [9-Aminoacridine•HCl•H2O] | >9 µg/mL
O=P1(N(CCCl)CCCl)NCCCO1 (stereo not drawn) [Cyclophosphamide•H2O] | >1500 µg/mL
Cc1cccc(Nc2cc(Cl)nc(SCC(=O)O)n2)c1C | >900 µg/mL
Nc1ccc2cc3ccc(N)cc3nc2c1 [Proflavine HCl] | >10 µg/mL
ClCc1ccccc1 [Benzyl Chloride] | >1500 µg/mL

* * *

Test system: FU100
DETAILS: in the presence of S9 activation (+); FU100; 2 h exposure
Structures can show the parent of a compound that is named as a salt.

COMPOUND | Results (5-FU assay)
CCCCCCCCCCCCOS(=O)(=O)[O-].[Na+] [Sodium Dodecyl Sulfate] | Neg
CN(C)N=O [N-Nitrosodimethylamine] | Pos
COS(C)(=O)=O [Methyl Methanesulfonate] | Pos
COC(=O)[C@H]1[C@H]2C[C@@H]3c4[nH]c5cc(OC)ccc5c4CCN3C[C@H]2C[C@@H](OC(=O)c2cc(OC)c(OC)c(OC)c2)[C@@H]1OC [Reserpine] | Neg
Cc1ccc2cc3c(ccc4ccccc43)c3c2c1CC3 [20-Methylcholanthrene] | Pos
[N-]=[N+]=[N-] [Sodium Azide] | Pos^w
Cl.Nc1c2ccccc2nc2ccccc12.O [9-Aminoacridine•HCl•H2O] | Pos
ClCc1ccccc1 [Benzyl Chloride] | Pos
O=P1(N(CCCl)CCCl)NCCCO1 (stereo not drawn) [Cyclophosphamide•H2O] | Pos^w
O=Cc1ccccc1 [Benzaldehyde] | Neg
COc1ccc(O)c(C(C)(C)C)c1 [Butylated Hydroxyanisole] | Neg
CCC1CO1 (stereo not drawn) [1,2-Epoxybutane] | Pos
CC(C)(OOC(C)(C)c1ccccc1)c1ccccc1 [Dicumyl peroxide] | Neg
OCc1ccccc1 [Benzyl Alcohol] | Neg
O=c1ccc2ccccc2o1 [Coumarin] | Pos
C[S+](C)[O-] [Dimethyl Sulfoxide] | Neg
Nc1ccc2cc3ccc(N)cc3nc2c1 [Proflavine HCl] | Pos
O=[N+]([O-])c1ccc(O)cc1 [p-Nitrophenol] | Neg
